# Test system: C. elegans
# recorded-conditions: Table S2, C. elegans SS assay, 110 μM, 0 h, averages of 4 data points
Reported Percentage of motility inhibition 0 h by item:

1) CC(C)=CCC[C@@](C)(O)[C@H]1CC[C@]2(C)[C@@H]1[C@H](O)C[C@@H]1[C@@]3(C)CC[C@H](O[C@@H]4O[C@H](CO)[C@@H](O)[C@H](O)[C@H]4O[C@@H]4O[C@H](CO)[C@@H](O)[C@H](O)[C@H]4O[C@@H]4OC[C@@H](O)[C@H](O)[C@H]4O)C(C)(C)[C@@H]3CC[C@]12C [Notoginsenoside Ft1]    14%
2) O=c1c(O[C@@H]2OC[C@H](O)[C@H](O)[C@H]2O)c(-c2ccc(O)c(O)c2)oc2cc(O)cc(O)c12    0%
3) CC(=O)O.CC(=O)O.NC(=N\CCCCCC/N=C(N)/N=C(\N)Nc1ccc(Cl)cc1)/N=C(\N)Nc1ccc(Cl)cc1 [Chlorhexidine (diacetate)]    38%

Query string: Quote Percentage of motility inhibition 0 h reported for N.N.N.O=C(O)CC(O)(CC(=O)O)C(=O)O please.
Result string: 8%

Query string: Quote Percentage of motility inhibition 0 h reported for C=C1CC[C@@H]2[C@](C)(COC(=O)CCC(=O)[O-])[C@H](OC(=O)CCC(=O)O)CC[C@@]2(C)[C@@H]1/C=C/C1=CCOC1=O.[K+] [Kalii Dehydrographolidi Succinas] please.
Result string: 5%
